# Tested on: PC-3 (prostate cancer)
# assay summary: SRB antiproliferative assay, PC-3
# Format: cell-based, human
# cond: read-out: IC50 PC-3; SRB, 72 h
pIC50: −log10 of the molar value.
Some compounds, each annotated with its measured pIC50.
measured endpoint: pIC50

# smiles data, measured endpoint, number
records = [
    ("CCC1=C(O)c2c(oc(-c3csc4cccc(O)c34)cc2=O)C(CC)(CC)C1=O", "pIC50", 5.76),
    ("CCC1=C(O)c2c(oc(-c3sc4ccccc4c3O)cc2=O)C(CC)(CC)C1=O", "pIC50", 4.84),
    ("CCC1=C(O)c2c(oc(-c3csc4c(O)cccc34)cc2=O)C(CC)(CC)C1=O", "pIC50", 5.83),
    ("CCC1=C(O)c2c(oc(-c3ccc4cc(O)ccc4c3)cc2=O)C(CC)(CC)C1=O", "pIC50", 4.89),
]

---

Each entry below lists one item and its recorded IC50 value.
# Test system: KB (epidermoid carcinoma of the nasopharynx)
# assay summary: SRB antiproliferative assay, KB
# Type: cell-based, human
# cond: read-out: IC50 KB, 72 h
measured endpoint: IC50

# compound, result
rows = [
    ("CC1=C(O)C(C)(C)c2oc(-c3ccccc3)cc(=O)c2C1=O [Compound 1, Desmosdumotin B, reference compound]", "> 135 µM"),
    ("CCC1=C(O)c2c(oc(-c3csc4c(OC)cccc34)cc2=O)C(CC)(CC)C1=O", "12.1 µM"),
    ("CCC1=C(O)c2c(oc(-c3sc4ccccc4c3O)cc2=O)C(CC)(CC)C1=O", "19.6 µM"),
    ("CCC1=C(O)c2c(oc(-c3ccc4cc(O)ccc4c3)cc2=O)C(CC)(CC)C1=O", "19.9 µM"),
    ("CCC1=C(O)c2c(oc(-c3ccc(O)c4ccccc34)cc2=O)C(CC)(CC)C1=O", "0.74 µM"),
    ("CCC1=C(O)c2c(oc(-c3csc4c(O)cccc34)cc2=O)C(CC)(CC)C1=O", "1.28 µM"),
    ("CCC1=C(O)c2c(oc(-c3csc4cccc(O)c34)cc2=O)C(CC)(CC)C1=O", "2.01 µM"),
]

---

# subject of test: bovine brain tubulin (Bos taurus, UniProt P81947+Q6B856)
# Sequence (P81947 whole entry): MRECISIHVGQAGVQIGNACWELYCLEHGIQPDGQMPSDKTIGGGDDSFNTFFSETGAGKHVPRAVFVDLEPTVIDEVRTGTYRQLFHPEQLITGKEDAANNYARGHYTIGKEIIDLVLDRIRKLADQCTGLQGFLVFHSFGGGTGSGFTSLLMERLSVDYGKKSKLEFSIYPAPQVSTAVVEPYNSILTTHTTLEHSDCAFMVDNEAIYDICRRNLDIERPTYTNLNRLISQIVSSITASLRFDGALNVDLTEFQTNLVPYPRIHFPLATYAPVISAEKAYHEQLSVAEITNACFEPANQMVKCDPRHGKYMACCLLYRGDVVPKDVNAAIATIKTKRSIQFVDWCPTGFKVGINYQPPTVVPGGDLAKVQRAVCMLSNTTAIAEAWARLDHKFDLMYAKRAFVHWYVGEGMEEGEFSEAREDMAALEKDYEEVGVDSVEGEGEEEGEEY
# Sequence (Q6B856 whole entry): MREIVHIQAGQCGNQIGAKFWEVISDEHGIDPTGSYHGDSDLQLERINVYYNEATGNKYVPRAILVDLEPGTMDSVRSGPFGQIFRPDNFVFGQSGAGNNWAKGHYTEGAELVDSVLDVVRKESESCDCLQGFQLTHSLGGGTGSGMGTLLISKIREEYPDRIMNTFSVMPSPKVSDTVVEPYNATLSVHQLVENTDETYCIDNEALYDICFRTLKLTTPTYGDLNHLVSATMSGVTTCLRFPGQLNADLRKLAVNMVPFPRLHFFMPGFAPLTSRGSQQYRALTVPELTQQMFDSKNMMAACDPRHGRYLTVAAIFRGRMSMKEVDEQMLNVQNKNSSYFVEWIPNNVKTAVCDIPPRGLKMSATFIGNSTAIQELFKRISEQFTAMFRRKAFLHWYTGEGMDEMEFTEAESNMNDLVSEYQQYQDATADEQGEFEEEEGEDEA
# assay summary: Inhibition of [3H]colchicine binding to tubulin
# cond: 5 µM [3H]colchicine, 1 µM tubulin, 5 µM test compound
measured endpoint: ICB, percent inhibition of colchicine binding (%)

# smiles data, number
rows = [
    ("CCC1=C(O)c2c(oc(-c3csc4cc(O)ccc34)cc2=O)C(CC)(CC)C1=O", 39),
    ("CCC1=C(O)c2c(oc(-c3csc4c(O)cccc34)cc2=O)C(CC)(CC)C1=O", 37),
    ("CCC1=C(O)c2c(oc(-c3csc4cccc(O)c34)cc2=O)C(CC)(CC)C1=O", 70),
    ("CCC1=C(O)c2c(oc(-c3csc4ccc(O)cc34)cc2=O)C(CC)(CC)C1=O", 32),
    ("CCC1=C(O)c2c(oc(-c3ccc(O)c4ccccc34)cc2=O)C(CC)(CC)C1=O", 54),
]

---

# System: HCT-8 (human colon adenocarcinoma)
# assay summary: SRB antiproliferative assay, HCT-8
# Assay type: cell-based
# cond: read-out: IC50 HCT-8; SRB, 72 h
pIC50: −log10 of the molar value.
Each record here notes measured pIC50.
measured endpoint: pIC50

# smiles data, number
records = [
    ("CCC1=C(O)c2c(oc(-c3csc4c(O)cccc34)cc2=O)C(CC)(CC)C1=O", 4.97),
    ("CCC1=C(O)c2c(oc(-c3ccc4cc(O)ccc4c3)cc2=O)C(CC)(CC)C1=O", 4.85),
    ("CCC1=C(O)c2c(oc(-c3ccc(O)c4ccccc34)cc2=O)C(CC)(CC)C1=O", 5.99),
    ("CCC1=C(O)c2c(oc(-c3csc4cccc(O)c34)cc2=O)C(CC)(CC)C1=O", 5.77),
    ("CCC1=C(O)c2c(oc(-c3sc4ccccc4c3O)cc2=O)C(CC)(CC)C1=O", 4.78),
    ("CCC1=C(O)c2c(oc(-c3csc4ccc(OC)cc34)cc2=O)C(CC)(CC)C1=O", 4.79),
]

---

# Test system: KB-VIN (P-gp-overexpressing MDR subline of KB)
# assay summary: SRB antiproliferative assay, KB-VIN
# Assay type: cell-based, human
# cond: read-out: IC50 KB-VIN, 72 h
pIC50: −log10 of the molar value.
measured endpoint: pIC50

# molecule, measured endpoint, number
measured = [
    ("CCC1=C(O)c2c(oc(-c3csc4cccc(OC)c34)cc2=O)C(CC)(CC)C1=O", "pIC50", 4.93),
    ("CCC1=C(O)c2c(oc(-c3sc4ccccc4c3O)cc2=O)C(CC)(CC)C1=O", "pIC50", 5.18),
    ("CCC1=C(O)c2c(oc(-c3ccc4cc(O)ccc4c3)cc2=O)C(CC)(CC)C1=O", "pIC50", 4.86),
    ("CCC1=C(O)c2c(oc(-c3csc4c(OC)cccc34)cc2=O)C(CC)(CC)C1=O", "pIC50", 4.97),
    ("CCC1=C(O)c2c(oc(-c3csc4c(O)cccc34)cc2=O)C(CC)(CC)C1=O", "pIC50", 5.95),
    ("CCC1=C(O)c2c(oc(-c3ccc(O)c4ccccc34)cc2=O)C(CC)(CC)C1=O", "pIC50", 6.35),
    ("CC1=C(O)C(C)(C)c2oc(-c3ccccc3)cc(=O)c2C1=O [Compound 1, Desmosdumotin B, reference compound]", "pIC50", 5.17),
]

---

# System: PC-3 (prostate cancer)
# assay summary: SRB antiproliferative assay, PC-3
# Assay type: cell-based, human
# cond: read-out: IC50 PC-3; SRB, 72 h
pIC50: −log10 of the molar value.
measured endpoint: pIC50

# compound, subject of test, measured endpoint, inequality sign, number
rows = [
    ("CC1=C(O)C(C)(C)c2oc(-c3ccccc3)cc(=O)c2C1=O [Compound 1, Desmosdumotin B, reference compound]", "PC-3 (prostate cancer)", "pIC50", "<", 4.40),
    ("CCC1=C(O)c2c(oc(-c3csc4c(OC)cccc34)cc2=O)C(CC)(CC)C1=O", "PC-3 (prostate cancer)", "pIC50", "=", 5.07),
    ("CCC1=C(O)c2c(oc(-c3ccc(O)c4ccccc34)cc2=O)C(CC)(CC)C1=O", "PC-3 (prostate cancer)", "pIC50", "=", 5.95),
]
